Biological target: Platelet-activating factor acetylhydrolase 2, cytoplasmic (Homo sapiens) (UniProt Q99487)
Assay: inhibition of cytoplasmic PAF acetylhydrolase 2 – biochemical, fluorescence polarization, human, primary screen (AID 492956);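 note: inhibitors block probe labeling of enzyme so polarization drops; 0% = enzyme with DMSO and 100% = wells lacking PAFAH2 protein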
Details: recombinant PAFAH2, FP-rhodamine activity probe, at 3.39 µM
Screen size: about 340,000 compounds; about 3,300 (0.97%) were called active.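 Rule for the calls: active = inhibition above the mean over all tested compounds plus 3 SD (cut at about 30% in these data); inactive = the rest.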 For the sample, actives were picked, then their nearest neighbours and some compounds at random.
Parameter call: string, one of t for active, f for inactive

How was CC(NC(=O)c1ccccc1)C(=O)Nc1ccccc1 (stereo not given) classified in this test?
f

====

Let's look at some compounds and their measured inhibition.
Target: Platelet-activating factor acetylhydrolase 2, cytoplasmic (Homo sapiens) (UniProt Q99487)
Test: inhibition of cytoplasmic PAF acetylhydrolase 2 – biochemical, fluorescence polarization, human, primary screen (AID 492956);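 note: inhibitors block probe labeling of enzyme so polarization drops; 0% = enzyme with DMSO and 100% = wells lacking PAFAH2 protein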
Conditions: recombinant PAFAH2, FP-rhodamine activity probe, at 3.39 µM, stronger effect = higher value
About 3,300 (0.97%) of roughly 340,000 compounds were called active. Only a selection was taken, and actives are over-represented in it overall.
A number alone suffices; assume %.

{"columns": ["compound", "experimental-target", "readout-number"],
 "data": [
  ["CN(C)[C@@H]1C(=O)C(C(N)=O)=C(O)[C@@]2(O)C(=O)C3=C(O)c4c(O)ccc(Cl)c4[C@@H](O)[C@H]3C[C@@H]12", "Platelet-activating factor acetylhydrolase 2, cytoplasmic (Homo sapiens) (UniProt Q99487)", 1.11],
  ["C=CCN(C(=O)c1cc(C)cc(C)c1)C1(C(=O)Nc2ccccc2)CCN(C(C)C)CC1", "Platelet-activating factor acetylhydrolase 2, cytoplasmic (Homo sapiens) (UniProt Q99487)", -2.17],
  ["O=C(O)c1ccccc1N=N/C(=N/Nc1cc(S(=O)(=O)O)ccc1O)c1ccccc1", "Platelet-activating factor acetylhydrolase 2, cytoplasmic (Homo sapiens) (UniProt Q99487)", 50.6]
]}

Here's the next entry for you.
What does the data say about its inhibition? Entry: C=C1c2c(Cl)ccc(O)c2C(O)=C2C(=O)[C@]3(O)C(O)=C(C(N)=O)C(=O)[C@@H](N(C)C)[C@@H]3[C@@H](O)C12 (some centres undefined)
42

====

Target: Platelet-activating factor acetylhydrolase 2, cytoplasmic (Homo sapiens)
Assay: inhibition of cytoplasmic PAF acetylhydrolase 2 – biochemical, fluorescence polarization, human, primary screen (AID 492956);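 note: inhibitors block probe labeling of enzyme so polarization drops; 0% = enzyme with DMSO and 100% = wells lacking PAFAH2 protein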
Settings: recombinant PAFAH2, FP-rhodamine activity probe, at 3.39 µM, stronger effect = higher value
Hit rate of the full screen: of about 340,000 compounds, about 3,300 (0.97%) were called active. The list comes from a sample in which actives are over-represented; it also holds close analogues and randomly drawn compounds.
measure: inhibition

What does the data say about its inhibition? Entry: NC(=O)c1ccc(NC(=O)COC(=O)c2ccc([N+](=O)[O-])cc2)cc1
0.64% (inactive)

What does the data say about its inhibition? Entry: CC1CCc2c(sc3c2C2=NS(=O)(=O)CCN2C=N3)C1 (stereo unspecified)
0.66% (inactive)

What does the data say about its inhibition? Entry: COC(=O)c1ccc(CN2CCC(CO)(Cc3ccc(OC)cc3)CC2)cc1
-1.13% (inactive)

What does the data say about its inhibition? Entry: CC(C)Nc1nnc(SC(C)C(=O)N(C)C2CCCCC2)s1 (stereo unspecified)
9.89% (inactive)

What does the data say about its inhibition? Entry: CC(=O)Nc1ccc(C(=O)OCC(=O)Nc2ccc([N+](=O)[O-])cc2C(F)(F)F)cc1
40.5% (active)

What does the data say about its inhibition? Entry: CCOc1ccc(C(=O)Nc2cccc(SC)c2)cc1
-11.9% (inactive)
